Hey, just so you know, these numbers are from paper PMC9505067.

- Assay System: androgen receptor (AR) (Homo sapiens, UniProt P10275)
- Sequence (P10275 whole entry): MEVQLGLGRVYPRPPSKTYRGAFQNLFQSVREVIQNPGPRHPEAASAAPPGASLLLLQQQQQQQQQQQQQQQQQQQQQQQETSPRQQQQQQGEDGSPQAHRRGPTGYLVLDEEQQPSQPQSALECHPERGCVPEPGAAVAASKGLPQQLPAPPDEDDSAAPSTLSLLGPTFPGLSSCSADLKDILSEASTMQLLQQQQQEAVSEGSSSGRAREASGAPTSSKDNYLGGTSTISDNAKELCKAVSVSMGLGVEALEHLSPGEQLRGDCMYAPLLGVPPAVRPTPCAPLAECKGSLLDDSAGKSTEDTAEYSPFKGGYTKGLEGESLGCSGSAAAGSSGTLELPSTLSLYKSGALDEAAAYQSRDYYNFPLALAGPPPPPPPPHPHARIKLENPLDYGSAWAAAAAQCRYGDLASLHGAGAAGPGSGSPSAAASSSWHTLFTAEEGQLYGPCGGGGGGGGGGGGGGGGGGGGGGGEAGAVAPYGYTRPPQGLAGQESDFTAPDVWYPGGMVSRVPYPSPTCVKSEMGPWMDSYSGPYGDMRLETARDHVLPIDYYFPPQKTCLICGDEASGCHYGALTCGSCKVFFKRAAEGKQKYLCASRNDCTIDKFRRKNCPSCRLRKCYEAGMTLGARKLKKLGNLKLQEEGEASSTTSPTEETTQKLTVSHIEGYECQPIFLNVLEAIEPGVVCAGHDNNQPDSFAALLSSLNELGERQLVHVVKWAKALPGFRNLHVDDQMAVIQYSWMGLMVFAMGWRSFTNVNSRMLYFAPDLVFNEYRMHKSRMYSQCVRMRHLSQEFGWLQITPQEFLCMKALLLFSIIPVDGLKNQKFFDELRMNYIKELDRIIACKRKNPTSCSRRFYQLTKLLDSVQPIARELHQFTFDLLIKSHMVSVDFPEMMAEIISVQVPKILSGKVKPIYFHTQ
- Assay Info: AR antagonist luciferase gene reporter assay (AR plasmid pSVAR0 + MMTV-Luc, DHT at EC80)
- Experimental Setup: Antagonist Activity in CV-1 IC50, luciferase reporter in AR-transfected cells, DHT at EC80, 24 h incubation; means ± SD of three independent experiments
Observed Property: IC50 (nM)
State the answer as a number, implicitly in nM.

Record Cc1ccc(N2C(=O)N(c3ccc(C#N)c(C(F)(F)F)c3)C(=O)C2(C)CO)cc1 (stereo not shown) [7b] , field IC50: 115

Record CC1(CO)C(=O)N(c2ccc(C#N)c(C(F)(F)F)c2)C(=O)N1c1ccc([N+](=O)[O-])cc1 (stereo not shown) [7h] , field IC50: 48.9

Record CC1(CO)C(=O)N(c2ccc(C#N)c(C(F)(F)F)c2)C(=O)N1c1ccc(O)cc1 (stereo not shown) [11b] , field IC50: 2360
